Test system: HT29 colon
assayText: NCI tumour cell line growth inhibition, 48 h
measureName: TGI

NC1=NCC(c2ccccn2)C1c1ccc(F)cc1 (stereo not given); > 100 µM
N/N=C(/CC(O)(C(F)(F)F)C(F)(F)F)c1ccccc1; > 10 µM

Challenge: Lookup: TGI / HT29 colon / COC1C(O)CC(OC2CC(OC3CC(O[C@@H]4C(=O)c5c(cc6cc(OC7CC(OC8CC(O)C(O)C(C)O8)C(O)C(C)O7)c(C)c(O)c6c5O)C[C@H]4[C@H](OC)C(=O)[C@@H](O)[C@@H](C)O)OC(C)C3O)OC(C)C2O)OC1C (stereo not given in full)
Response given: > 56 µM

Challenge: What do you get for CCOC(=O)C(C)c1nc2cc(C(F)(F)F)ccc2[nH]c1=O (stereo not given) ?
Response given: > 100 µM

Challenge: What do you get for CNC1=CC(=O)C2=C(C1=O)C1C3=C(C(=O)C(Br)=C(OC)C3=O)C2c2ccccc21 (stereo not given) ?
Response given: > 50 µM

Challenge: What do you get for N#Cc1nc(-c2ccc(-c3nc(C#N)c(N)o3)cc2)oc1N ?
Response given: > 10 µM

Challenge: What do you get for O=C1CC2(CCNCC2)C(=O)N1N1CCCCC1 ?
Response given: > 100 µM

Challenge: What do you get for Cn1ccc2c3c(=O)cc[nH]c3ccc21 ?
Response given: > 100 µM

Challenge: What do you get for O=c1[nH]cc(COCC(O)CO)c(=O)[nH]1 (stereo not given) ?
Response given: > 100 µM

Challenge: What do you get for CC(=O)Oc1cc(/C=C/c2ccc(O)cc2)cc(OC(C)=O)c1 ?
Response given: 93.1 µM

Challenge: What do you get for CC(C)c1ccc(/C=N/N=C(N)N)cc1 ?
Response given: 9.65 µM

Challenge: What do you get for COC(=O)[C@@H]1[C@H](O)[C@H](C)[C@H](O)[C@H](C)/C=C\C=C(C)C(=O)Nc2c(C)c(OC(C)=O)c3c(c2O)C(=O)C(C)=C2OCOC(=C23)C(C)=C[C@@](C)(O)[C@H](O)[C@@H](C)[C@H]1OC(C)=O ?
Response given: > 100 µM

Challenge: What do you get for COc1ccc(C(c2cc(OC)c(OC)c(OC)c2)N2C(=O)CCC2C(=O)O)cc1 (stereo not given) ?
Response given: > 100 µM

Challenge: What do you get for Cc1cccc(/C=C2/C(=O)Nc3ccccc32)n1 ?
Response given: > 100 µM

Challenge: What do you get for C=C1[C@@H](O)C[C@H]2C(C)(C)C[C@H](Cl)C[C@]2(C)[C@H]1C[C@H](O)[C@H]1CC(=O)NC1=O ?
Response given: 0.119 µM

---

System: OVCAR-8 ovarian
assayText: NCI tumour cell line growth inhibition, 48 h
Recorded GI50 values for a group of molecules are listed next.

C=C1C(=O)O[C@H]2[C@H]1CC/C(COC(=O)C(=O)c1c[nH]c3ccc(Cl)cc13)=C\CC[C@@]1(C)O[C@@H]21; 2.32 µM
CNC(C)[C@H]1CCC2C3CCC4C[C@@H](N(C)C(=O)c5ccccc5)CC[C@]4(C)C3CC[C@@]21C (stereo not given in full); 3.44 µM

Challenge: So what's the measured GI50 for this one? O=C(NCCNC(=O)c1ccc(F)cc1)Nc1ccc(-n2cc(-c3ccncc3)c(-c3ccc(Cl)c(O)c3)n2)cc1
Response given: 0.491 µM

Challenge: What do you get for NC(=NCCO)c1ccc(N2CCCN(c3ccc(C(N)=NCCO)cc3)CC2)cc1 ?
Response given: > 100 µM

Challenge: What do you get for CCCC(CCC)Oc1ccc(CCCC2=C(O)c3ccccc3C(=O)C2=O)cc1 ?
Response given: 10.2 µM
